Can you tell me growth inhibition for the items I'm about to list?
- Experimental protocol: NCI Yeast Anticancer Drug Screen. Data for the sgs1 strain (AID 173);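 note: 0% = growth of vehicle-only control cultures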
- Experimental context: S. cerevisiae sgs1 mutant, at 11.0 µM, active compounds read high
Compounds without any hit were thinned out: in the full panel of roughly 79,000, 15% have a hit.
Value expressed in %; do not type the unit.

Input line: Form field: reported growth inhibition of CCCCCCN(CCCCCC)CC(O)c1ccnc2ccc(OC)cc12 (centres undefined)
Output line: -3

Input line: Try the molecule O=C(/C=C\c1cccc(C(F)(F)F)c1)c1ccccc1
Output line: 1

Input line: Try the molecule O=[N+]([O-])c1cc(Cl)cnc1Br
Output line: 30

Input line: Try the molecule Nc1cc(N)c(N=Nc2cccc3c(S(=O)(=O)O)cccc23)cc1N=Nc1cc([N+](=O)[O-])ccc1O
Output line: 19

Input line: Try the molecule CC(=O)OCC(C)Cc1cc2c(cc1Br)OCO2 (centres undefined)
Output line: 3

Input line: Try the molecule O=C1C=C(c2ccccc2)OC1(c1ccccc1)N1CCOCC1 (centres undefined)
Output line: 4

Input line: Try the molecule COc1cccc2c1C(=O)c1c(O)c3c(c(O)c1C2=O)CC(O)(C(O)CO)CC3OC1CC(N2CCOCC2)C(O)C(C)O1 (centres undefined)
Output line: 97

Input line: Try the molecule CC(C)/C(Cl)=N\OC(=O)Nc1ccc(F)cc1F
Output line: 4

Input line: Try the molecule CCCCC(CC)C(=O)[O][Sn]([CH2]CCC)([CH2]CCC)[O]C(=O)C(CC)CCCC (centres undefined)
Output line: 37

Input line: Try the molecule CNC(=O)OCc1c(COC(=O)NC)c(-c2ccc(Cl)c(Cl)c2)n2c1SCC2
Output line: 1

Input line: Try the molecule CCN(CC)CCN(C)CCc1ccc(Br)cc1
Output line: 49

Input line: Try the molecule CNC(=O)OCc1c(COC(=O)NC)c2n(c1C)-c1ccc(OC)cc1CCC2
Output line: -16

Input line: Try the molecule COc1ccc2[nH]cc([C@@H]3C4CCC(C4)[C@H]3NCc3cccc(CN[C@H]4C5CCC(C5)[C@@H]4c4c[nH]c5ccc(OC)cc45)c3)c2c1
Output line: -45

Input line: Try the molecule Cc1sc2ccc3ccccc3c2[n+]1C
Output line: 1

Input line: Try the molecule CCOc1c(N=Nc2ccccc2OC)c(C)nn1C(=S)S
Output line: 14

Input line: Try the molecule O=C1c2cccnc2C(=O)C2C3C=CC(C3)C12 (centres undefined)
Output line: 75

Input line: Try the molecule CCCCCCCCCCCC1N=C(N)NC(CCCO)=C1C(=O)OC (centres undefined)
Output line: 99

Input line: Try the molecule O=[N+]([O-])c1cccc2nc3ccccc3c(NCCC[N+]3([O-])CCCCC3)c12
Output line: 84

Input line: Try the molecule CCOC(=O)c1[nH]cc(C)c1-c1cccn1-c1ccc(Cl)cc1[N+](=O)[O-]
Output line: 21

Input line: Try the molecule O=c1ccc2ccccc2c2ccccc12
Output line: 69

Input line: Try the molecule CN(C)[C@@H]1C(=O)C(C(N)=O)=C(O)[C@@]2(O)C(=O)C3=C(O)c4c(O)cccc4C[C@H]3C[C@@H]12
Output line: 26

Input line: Try the molecule O=C(NCCCNCCN1C(=O)c2cccc3cc([N+](=O)[O-])cc(c23)C1=O)c1cc(-c2ccccc2)nc2ccccc12
Output line: 2

Input line: Try the molecule CCCCCCCCCCCC1=NCCO1
Output line: 6

Input line: Try the molecule O=C(O)c1cc2ccccc2c2c1C(=O)c1ccccc1-2
Output line: 69

Input line: Try the molecule CN(C)N=Nc1ccccc1C(=O)NC#N
Output line: 98

Input line: Try the molecule O=[N+]([O-])c1cc(F)c(F)cc1Sc1cc(F)c(F)cc1[N+](=O)[O-]
Output line: 92

Input line: Try the molecule O=C(O)CCCC1CCCc2c1ccc1ccccc21 (centres undefined)
Output line: 6

Input line: Try the molecule COC(=O)CC1CCc2c(ccc3ccccc23)C1(C)C(=O)OC (centres undefined)
Output line: -18

Input line: Try the molecule NNC(=O)CCc1cc2ccccc2c2ccccc12
Output line: 9

Input line: Try the molecule O=C(Nc1ccc(Cl)cc1)Nc1nnc2nc(C(C(=O)c3cccc([N+](=O)[O-])c3Cl)c3nc4nnc(NC(=O)Nc5ccc(Cl)cc5)n4[nH]c3=O)c(=O)[nH]n12
Output line: -2

Input line: Try the molecule Nc1n[n+]([O-])c2ccc(Cl)cc2[n+]1[O-]
Output line: 78

Input line: Try the molecule O=[N+]([O-])/C=C/c1cc(Cl)c(/C=C/[N+](=O)[O-])cc1Cl
Output line: 14

Input line: Try the molecule CN(C)CCCCN1c2ccccc2Sc2ccc(N=[N+]=[N-])cc21
Output line: 43

Input line: Try the molecule Clc1ccc(NCNC2Nc3ccccc3N2)cc1Cl
Output line: 34

Input line: Try the molecule NC1=NNC2(C(N)=N1)c1ccccc1-c1ccccc12
Output line: 11

Input line: Try the molecule Cc1cc(C)c(NC(=S)NC(=O)c2ccccc2)cc1C
Output line: -45

Input line: Try the molecule CCOC1Oc2ccccc2-c2nc(N)ncc21 (centres undefined)
Output line: 5

Input line: Try the molecule CCC(=O)c1cc(C(=O)C(=S)SC)cc(C(=O)C(=S)SC)c1
Output line: 98

Input line: Try the molecule CCOC(=O)c1[nH]n(-c2ccccc2)c(=O)c1C=NC(=S)C(N)=S
Output line: 41

Input line: Try the molecule Oc1[nH]c2ccccc2c1N=NC(=S)N1CCCCC1
Output line: 28

Input line: Try the molecule Cc1nc2ccc(N=NN(C)C)cc2[nH]1
Output line: 40

Input line: Try the molecule Cc1cc(-c2cc(C)c(O)c(C(C)(C)C)c2)cc(C(C)(C)C)c1O
Output line: -6

Input line: Try the molecule O=C(C[n+]1ccc2ccccc2c1)c1ccc2ccccc2c1
Output line: -34

Input line: Try the molecule O=C1c2ccccc2C(=O)c2cc(CCl)ccc21
Output line: 7

====

- Experimental protocol: NCI Yeast Anticancer Drug Screen. Data for the CLN2oe strain (AID 163);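 note: 0% = growth of vehicle-only control cultures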
- Experimental context: S. cerevisiae CLN2oe strain, at 11.0 µM
Compounds without any hit were thinned out: in the full panel of roughly 79,000, 15% have a hit. The source made the active and inactive calls. Rule as the data show it: active = growth inhibition above about 70%; inactive = the rest.
Form entry, call: pick from active, inactive

Input line: Assay outcome for O=[N+]([O-])c1ccc2c(c1)/C(=N/N=C1c3ccccc3Cc3ccccc31)c1cc([N+](=O)[O-])cc([N+](=O)[O-])c1-2 : what was it?
Output line: active

Input line: Try the compound CSc1nc(C)c(CCOC(C)=O)c(N=P(c2ccccc2)(c2ccccc2)c2ccccc2)n1
Output line: inactive

Input line: Try the compound CC(C)(CCCCC(C)(C)[N+](C)(C)C)[N+](C)(C)C
Output line: inactive

Input line: Try the compound COC(=O)CC1(O)C(/C=C/c2ccccc2)C(C(=O)OC)C(=O)C(C(=O)OC)C1C(=O)OC (stereo unspecified)
Output line: inactive

Input line: Try the compound N#CC(=Nc1ccccc1F)Nc1ccccc1F
Output line: inactive

Input line: Try the compound Nc1cc(N)c(N=Nc2cccc3c(S(=O)(=O)O)cccc23)cc1N=Nc1cc([N+](=O)[O-])ccc1O
Output line: inactive

Input line: Try the compound Cc1ccc(N=Nc2ccc(O)c(=O)cc2)cc1
Output line: inactive

Input line: Try the compound COc1cccc2c1C(=O)c1c(O)c3c(c(O)c1C2=O)C[C@@](O)(C(C)=O)C[C@@H]3OC1CC(OC(C)=O)C(OC(C)=O)C(C)O1 (stereo partly specified)
Output line: inactive

Input line: Try the compound CCOc1ccc(NC(=O)C2=C(C)NC(C)=C(C(=O)Nc3ccc(OCC)cc3)C2c2cccc([N+](=O)[O-])c2)cc1
Output line: inactive

Input line: Try the compound COc1ccc(C/C=N/Nc2ccc([N+](=O)[O-])cc2)cc1OC
Output line: inactive

Input line: Try the compound C=C1C(=O)OC2CC1C(OC(C)=O)C/C(C)=C/CC/C(C)=C\CCC2(C)O (stereo unspecified)
Output line: inactive

Input line: Try the compound O=[N+]([O-])c1cc(F)c(F)cc1Sc1cc(F)c(F)cc1[N+](=O)[O-]
Output line: active

Input line: Try the compound O=C(NCCCl)Sc1ccc(Cl)cc1
Output line: inactive

Input line: Try the compound O=C1C(Br)=C(c2ccccc2)O/C1=C/C(=O)c1ccc(Br)cc1
Output line: inactive

Input line: Try the compound C=C(Cl)COC(=O)Nc1cccc(Cl)c1
Output line: inactive

Input line: Try the compound Cc1ccccc1N=C(NO)c1ccccc1
Output line: inactive

Input line: Try the compound Nc1n[n+]([O-])c2ccc(Cl)cc2[n+]1[O-]
Output line: inactive

Input line: Try the compound C=C(C(=C)n1nnc(C(=O)OC)c1C(=O)OC)n1nnc(C(=O)OC)c1C(=O)OC
Output line: inactive

Input line: Try the compound O=P(NC1CCCCC1)(OCc1ccccc1)OCc1ccccc1
Output line: inactive

Input line: Try the compound CC12C(=O)OC(=O)C(c3ccccc31)c1ccccc12
Output line: inactive

Input line: Try the compound CCCCCCCCCCCC(O)S(=O)(=O)O (stereo unspecified)
Output line: inactive
